Target: human ether-à-go-go-related gene (hERG) potassium channel (human, UniProt Q12809);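 note: peak tail current of the secondary pulse compared with the same well before compound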
Sequence (Q12809 whole entry, looked up): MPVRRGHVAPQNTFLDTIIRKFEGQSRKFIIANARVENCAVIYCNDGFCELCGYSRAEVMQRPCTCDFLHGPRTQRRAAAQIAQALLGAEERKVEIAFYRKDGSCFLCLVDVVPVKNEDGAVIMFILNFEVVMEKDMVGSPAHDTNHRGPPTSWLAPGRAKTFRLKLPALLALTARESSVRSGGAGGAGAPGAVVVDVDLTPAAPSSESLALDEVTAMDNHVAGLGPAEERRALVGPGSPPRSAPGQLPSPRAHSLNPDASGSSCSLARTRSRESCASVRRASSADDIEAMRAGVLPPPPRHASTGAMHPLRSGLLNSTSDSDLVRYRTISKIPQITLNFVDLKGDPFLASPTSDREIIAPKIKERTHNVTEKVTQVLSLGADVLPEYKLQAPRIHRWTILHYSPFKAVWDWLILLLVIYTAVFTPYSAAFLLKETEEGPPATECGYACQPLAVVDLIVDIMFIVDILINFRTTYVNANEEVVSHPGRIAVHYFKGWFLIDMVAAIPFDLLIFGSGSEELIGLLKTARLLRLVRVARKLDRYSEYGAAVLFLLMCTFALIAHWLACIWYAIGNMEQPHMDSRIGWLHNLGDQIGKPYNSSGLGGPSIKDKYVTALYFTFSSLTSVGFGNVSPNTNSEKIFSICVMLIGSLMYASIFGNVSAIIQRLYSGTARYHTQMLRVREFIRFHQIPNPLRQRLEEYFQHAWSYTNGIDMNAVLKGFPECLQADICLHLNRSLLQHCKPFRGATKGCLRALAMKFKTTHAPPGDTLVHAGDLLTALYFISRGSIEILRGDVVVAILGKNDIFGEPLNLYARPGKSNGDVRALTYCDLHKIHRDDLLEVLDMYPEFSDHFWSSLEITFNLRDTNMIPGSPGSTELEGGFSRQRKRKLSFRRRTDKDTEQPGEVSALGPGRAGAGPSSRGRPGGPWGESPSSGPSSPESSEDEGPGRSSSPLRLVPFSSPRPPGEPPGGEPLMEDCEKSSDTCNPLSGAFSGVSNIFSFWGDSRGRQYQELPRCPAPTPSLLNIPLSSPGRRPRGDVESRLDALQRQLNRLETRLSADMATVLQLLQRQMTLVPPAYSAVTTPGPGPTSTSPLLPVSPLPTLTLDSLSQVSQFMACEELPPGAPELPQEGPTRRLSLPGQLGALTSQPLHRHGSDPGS
Assay: primary screen, population patch clamp on CHO cells stably expressing hERG; higher = less effect of the substance
Among all 310,000 compounds or so, about 14,000 (4.5%) showed an effect of 50% or more. The effect is printed as a negative number. What follows is part of a selection rich in strong results, with near analogues and random picks from the rest.
# hERG current change (%, negative = inhibition) at 10uM listing for each entry below
Property Label: hERG current change (%, negative = inhibition) at 10uM (%)

- Molecule: "CCN(CCCNC(=O)Cn1ncc2c([nH]c3ccc(C)cc32)c1=O)Cc1ccccc1"
  Recorded Result: -58.5
- Molecule: "CCn1cc(CN2CCN(Cc3ccc(OC)c(C)c3C)C(CCO)C2)c(C)n1 (centres unmarked)"
  Recorded Result: -23.1
- Molecule: "Cc1ccc(NC(=O)CCN2C(=O)c3ccccc3C2=O)cc1C"
  Recorded Result: 4.19
- Molecule: "CC(C)N(CCCNC(=O)Cn1ncc2c([nH]c3ccccc32)c1=O)Cc1ccccc1"
  Recorded Result: -48.1
- Molecule: "Fc1ccc(OCc2nc(-c3cccs3)no2)cc1"
  Recorded Result: -9.58
- Molecule: "CCn1ncc(CN2CCN(Cc3cccc(OC)c3)C(CCO)C2)c1C (centres unmarked)"
  Recorded Result: 7.07
- Molecule: "CCN(CCCNC(=O)Cn1ncc2c([nH]c3ccccc32)c1=O)Cc1ccccc1"
  Recorded Result: -67
- Molecule: "CCOc1ccc(CN2CCN(Cc3cnn(CC)c3C)CC2CCO)cc1 (centres unmarked)"
  Recorded Result: -67.8
- Molecule: "CCSc1nnc(NC(=O)C2CCCCC2C(=O)OCC(F)(F)C(F)F)s1 (centres unmarked)"
  Recorded Result: 17.9
- Molecule: "CC(=O)Nc1sc(C)c(C)c1C(=O)OCC(=O)N(CC(C)C)c1c(N)n(Cc2ccccc2)c(=O)[nH]c1=O"
  Recorded Result: -1.37
- Molecule: "CCc1cc2c(CN3CCN(CC)CC3)cc(=O)oc2cc1O"
  Recorded Result: -8.81
- Molecule: "COc1ccc(CCNC(=O)Cn2nc([N+](=O)[O-])c(Br)c2C)cc1OC"
  Recorded Result: -0.503
- Molecule: "COc1ccc(NC2CCCN(C(=O)c3cccc(C)n3)C2)cc1OC (centres unmarked)"
  Recorded Result: 18.5
- Molecule: "CCOc1ccc(C(=O)Nc2nnc(S(=O)(=O)N(C)Cc3ccco3)s2)cc1"
  Recorded Result: 9.14
- Molecule: "O=C(CN(Cc1ccco1)C(=O)c1ccc(N2CCCC2=O)cc1)Nc1ccccc1C(F)(F)F"
  Recorded Result: -46.3
- Molecule: "O=c1cc(Nc2ccc3c(c2)OCCO3)[nH]c(=O)n1-c1ccc(Br)cc1"
  Recorded Result: 14.3
- Molecule: "CCN(CC)CCCNc1cc(C(F)(F)F)c(C#N)c2nc3ccccc3n12"
  Recorded Result: -18.4
- Molecule: "Cc1ccc2nc(C)c(C)nc2c1N"
  Recorded Result: 8.1
- Molecule: "O=C(Cn1ncc2c([nH]c3ccccc32)c1=O)NCCc1ccccc1"
  Recorded Result: 3.06
- Molecule: "CCN(CCCNC(=O)Cn1ncc2c([nH]c3ccc(C)cc32)c1=O)c1ccccc1"
  Recorded Result: 19
